System: KATOIII (Gastric Carcinoma)
Method summary: combination Emax (second highest fraction inhibited in the dose matrix, 72 h); higher = more inhibition; extreme values may be limits of the assay
Metric name: combination Emax
Respond numerically, and do not add a unit to the figure.

Known results for molecules:
CC1(C)CCC(CN2CCN(c3ccc(C(=O)NS(=O)(=O)c4ccc(NCC5CCOCC5)c([N+](=O)[O-])c4)c(Oc4cnc5[nH]ccc5c4)c3)CC2)=C(c2ccc(Cl)cc2)C1 [Venetoclax] + C[C@@H](Nc1cc(F)cc(F)c1)c1cc(C(=O)N(C)C)cc2c(=O)cc(N3CCOCC3)oc12 [AZD8186] (first compound max 1 µM, 7x7, partner max 3 µM) | 0.142
COc1cccc(OCCCN)c1-c1cc(Nc2cnc(C#N)cn2)n[nH]1 [Prexasertib] + CN(C)CCCOc1ccc(-c2ccc3ncc4c(c3c2)n(C2CCOCC2)c(=O)n4C)cn1 [AZD0156] (first compound max 1 µM, 7x7, partner max 1 µM) | 0.522

Then this molecule:
The molecule listed as COc1nnc2ccc(N3CCC(c4ccc(OCCN5CCN(C)C(=O)[C@H]5C)cc4)CC3)nn12 [AZD5153] + Cc1c2c(nn1C)CSCc1cc(n(C)n1)CSc1cc(c3ccccc3c1)OCCCc1c(C(=O)O)n(C)c3c-2c(Cl)ccc13 [AZD5991] (first compound max 1 µM, 7x7, partner max 1 µM) has a reported combination Emax of 0.324
